test_protocol: Solubility in fasted-state simulated colonic fluid (FaSSCoF) at pH 6.5
Type: physicochemical
assay_setup: 25 °C, pH 6.5, fassgf or other biorelevant, thermodynamic from solid, FaSSCoF pH 6.5, 25° C., 24 h; Run 2; read-out: pH 6.5 FaSSCoF Solubility (mg/mL) Run 2
reported_metric: solubility thermodynamic at 24 h

// query solubility thermodynamic at 24 h value for entry COc1cc(Nc2cc(Oc3ccc(NC(=O)Nc4cc(C(C)(C)C)cc(NS(C)(=O)=O)c4OC)c4ccccc34)ccn2)ccc1C(=O)NC[C@@H]1O[C@H](CO)[C@@H](O)[C@H](O)[C@H]1O 0.006 mg/mL

// query solubility thermodynamic at 24 h value for entry CCOP(C)(=O)c1ccc(Nc2cc(Oc3ccc(NC(=O)Nc4cc(C(C)(C)C)cc(NS(C)(=O)=O)c4OC)c4ccccc34)ccn2)cc1OC (centres unmarked) 0.003 mg/mL

* * *

test_protocol: Solubility in fasted-state simulated colonic fluid (FaSSCoF) at pH 6.5
Format: physicochemical
assay_setup: 25 °C, pH 6.5, fassgf or other biorelevant, thermodynamic from solid, pH 6.5 FaSSCoF Solubility (mg/mL) Run 2
Method: The solubilities of compounds of the invention in FaSSCoF at pH 6.5 are determined using a modification of a previously-reported procedure (Vertzoni, M., et al. Pharm. Res. 2010, 27, 2187-2196). […] Test compounds are suspended in the pH 6.5 FaSSCoF medium to give a maximum final concentration of 2-10 mg/mL. […] The filtrates are then diluted as appropriate for injection and quantification by HPLC with reference to a standard. […]
Structures can show the parent of a compound that is named as a salt.
For each of the compounds below, state its solubility thermodynamic at 24 h.
Write down the numeric answer in µg/mL and omit the unit.

// query solubility thermodynamic at 24 h value for entry COc1cc(Nc2cc(Oc3ccc(NC(=O)Nc4cc(NS(C)(=O)=O)cc(C(C)(C)C)c4)c4ccccc34)ccn2)ccc1C(=O)NCCCN1CCN(C)CC1 [17(bp)] 24

// query solubility thermodynamic at 24 h value for entry COc1cc(Nc2cc(Oc3ccc(NC(=O)Nc4cc(C(C)(C)C)cc(NS(C)(=O)=O)c4OC)c4ccccc34)ccn2)cc(OC)c1C(=O)NCCOCCOCCO [Example 36] 6

// query solubility thermodynamic at 24 h value for entry COc1cc(Nc2cc(Oc3ccc(NC(=O)Nc4cc(C(C)(C)C)cc(NS(C)(=O)=O)c4OC)c4ccccc34)ccn2)ccc1C(=O)NCCOCCOCCO [Example 16] 4

// query solubility thermodynamic at 24 h value for entry COc1cc(Nc2cc(Oc3ccc(NC(=O)Nc4cc(C(C)(C)C)cc(NS(C)(=O)=O)c4OC)c4ccccc34)ccn2)ccc1C(=O)NC[C@H](O)[C@@H](O)[C@H](O)[C@H](O)CO [17(bw)] 3

// query solubility thermodynamic at 24 h value for entry COc1cc(Nc2cc(Oc3ccc(NC(=O)Nc4cc(C(C)(C)C)cc(NS(C)(=O)=O)c4OC)c4ccccc34)ccn2)cc(OC)c1C(=O)NCCN1CCN(C)CC1 [Example 22] 25

// query solubility thermodynamic at 24 h value for entry COc1cc(Nc2cc(Oc3ccc(NC(=O)Nc4cc(C(C)(C)C)cc(C(N)=O)c4OC)c4ccccc34)ccn2)ccc1C(=O)O [Example 3] 6

// query solubility thermodynamic at 24 h value for entry COc1cc(Nc2cc(Oc3ccc(NC(=O)Nc4cc(C(C)(C)C)cc(NS(C)(=O)=O)c4OC)c4ccccc34)ccn2)ccc1C(=O)NCCC1CCN(C)CC1 [Example 14] 13

// query solubility thermodynamic at 24 h value for entry COc1c(NC(=O)Nc2ccc(Oc3ccnc(Nc4ccc(C(=O)NCCN5CCOCC5)c(N(C)C)c4)c3)c3ccccc23)cc(C(C)(C)C)cc1NS(C)(=O)=O [Example 21] 10

// query solubility thermodynamic at 24 h value for entry COc1cc(Nc2cc(Oc3ccc(NC(=O)Nc4cc(NS(C)(=O)=O)cc(C(C)(C)C)c4)c4ccccc34)ccn2)ccc1C(=O)NCCN1CCN(C)CC1 [17(bo)] 33

// query solubility thermodynamic at 24 h value for entry COc1cc(Nc2cc(Oc3ccc(NC(=O)Nc4cc(C(C)(C)C)cc(NS(C)(=O)=O)c4OC)c4ccccc34)ccn2)ccc1C(=O)NC[C@H](O)[C@H](O)[C@H](O)CO [Example 42] 9

// query solubility thermodynamic at 24 h value for entry COc1cc(Nc2cc(Oc3ccc(NC(=O)Nc4cc(C(C)(C)C)cc(NS(C)(=O)=O)c4OC)c4ccccc34)ccn2)ccc1C(=O)NCC(=O)O [17(ar) (hydrochloride salt)] 198

// query solubility thermodynamic at 24 h value for entry COc1c(NC(=O)Nc2ccc(Oc3ccnc(Nc4ccc(P(C)(=O)O)c(N(C)C)c4)c3)c3ccccc23)cc(C(C)(C)C)cc1NS(C)(=O)=O [68 (sodium salt)] 20

// query solubility thermodynamic at 24 h value for entry COc1cc(Nc2cc(Oc3ccc(NC(=O)Nc4cc(C(C)(C)C)cc(NS(C)(=O)=O)c4OC)c4ccccc34)ccn2)ccc1C(=O)NCCOCCOCCOP(=O)(O)O [19 (ammonium salt)] 881

// query solubility thermodynamic at 24 h value for entry CCC(=O)NS(=O)(=O)c1ccc(Nc2nccc(Oc3ccc(NC(=O)Nc4cc(C(C)(C)C)cc(NS(C)(=O)=O)c4OC)c4ccccc34)n2)cc1OC [17(bk) (sodium salt)] 37

// query solubility thermodynamic at 24 h value for entry COc1cc(Nc2cc(Oc3ccc(NC(=O)Nc4cc(C(C)(C)C)cc(NS(C)(=O)=O)c4OC)c4ccccc34)ccn2)cc(OC)c1C(=O)NCCCN1CCN(C)CC1 [17(au)] 23

// query solubility thermodynamic at 24 h value for entry COc1cc(Nc2cc(Oc3ccc(NC(=O)Nc4cc(C(C)(C)C)cc(NS(C)(=O)=O)c4OC)c4ccccc34)ccn2)ccc1C(=O)NCCC1(O)CCN(C)CC1 [17(bg)] 19

// query solubility thermodynamic at 24 h value for entry COc1cc(Nc2cc(Oc3ccc(NC(=O)Nc4cc(C(C)(C)C)cc(NS(C)(=O)=O)c4OC)c4ccccc34)ccn2)ccc1C(=O)N(C)CCN1CCN(C)CC1 [17(bh)] 19

// query solubility thermodynamic at 24 h value for entry COc1cc(Nc2cc(Oc3ccc(NC(=O)Nc4cc(C(C)(C)C)cc(NS(C)(=O)=O)c4OC)c4ccccc34)ccn2)ccc1C(=O)NCCCCCCC(=O)O [34 (hydrochloride salt)] 1

Ref: patent US9751837B2
